These data points were gathered from patent US8193191B2.

# Subject Of Test: rat GPR14 (U-II receptor) (Rattus norvegicus)
# Construct: expressed in transfected cells
# Test Description: Rat UII Calcium Mobilization FLIPR Assay
# Assay type: cell-based
# Measurement Parameters: Inhibition of Acetyl-cyclic[Cys-Phe-Trp-Lys-(2-Nal)-Cys]-NH2 induced Ca2+ mobilization (FLIPR) in CHO cells transfected with rat UII receptor; read-out: IC50
pIC50: −log10 of the molar value.
Measurement Type: pIC50

1: COc1ccc(CN2C(=O)c3cccc(N4CCN(Cc5cccc(Cl)c5)CC4)c3C2=O)cc1OC
2: COc1ccc(CN2C(=O)c3cccc(N4CCN(C5CCc6ccccc65)CC4)c3C2=O)cc1OC (stereo not shown)
3: COc1ccc(CN2C(=O)c3cccc(N4CCN(Cc5cc(F)ccc5F)CC4)c3C2=O)cc1OC
Task: Please produce an ascending ranking of these compounds based on pIC50. As an answer, provide the labels arranged in the order called for.
Output: 1, 3, 2

###

# Subject Of Test: endogenous human UII receptor (Homo sapiens, UniProt Q9UKP6)
# Sequence (Q9UKP6 whole entry): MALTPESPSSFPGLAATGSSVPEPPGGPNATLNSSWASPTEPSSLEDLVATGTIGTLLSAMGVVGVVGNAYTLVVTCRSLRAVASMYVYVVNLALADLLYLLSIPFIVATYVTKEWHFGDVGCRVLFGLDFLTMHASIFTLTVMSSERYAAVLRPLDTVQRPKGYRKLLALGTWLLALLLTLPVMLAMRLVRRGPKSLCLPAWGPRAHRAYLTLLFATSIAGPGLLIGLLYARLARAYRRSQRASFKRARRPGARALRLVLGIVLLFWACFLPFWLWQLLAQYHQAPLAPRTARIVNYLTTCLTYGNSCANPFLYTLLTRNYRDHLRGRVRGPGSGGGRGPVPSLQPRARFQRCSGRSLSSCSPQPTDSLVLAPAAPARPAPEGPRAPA
# Test Description: Human Radioligand Binding Assay ((^125I)-U-II binding to human skeletal muscle myoblasts)
Measurement Type: Ki (nM)

COc1ccc([C@@H](CCCNS(=O)(=O)C2CCS(=O)(=O)C2)N2C(=O)c3cccc(N4CCN([C@H](C)c5ccccc5)CC4)c3C2=O)cc1OC (some centres unmarked) | 59
COc1ccc([C@@H](CCCNS(=O)(=O)c2cccs2)N2C(=O)c3cccc(N4CCN(Cc5cccnc5)CC4)c3C2=O)cc1OC | 370
COc1ccc(C(CCCNS(=O)(=O)c2sc(NC(C)=O)nc2C)N2C(=O)c3cccc(N4CCN([C@H](C)c5ccccc5)CC4)c3C2=O)cc1OC (some centres unmarked) | 180
COc1ccc(CN2C(=O)c3cccc(N4CCN(Cc5cccc(F)c5)CC4)c3C2=O)cc1OC | 3500
CCN1CCN(c2cccc3c2C(=O)N([C@H](CCCNC(=O)C2CCC2)c2ccc(OC)c(OC)c2)C3=O)CC1 | 150
COc1ccc([C@@H](CCCNS(=O)(=O)c2cccs2)N2C(=O)c3cccc(N4CCN(C5CCC5)CC4)c3C2=O)cc1OC | 30

1: COc1ccc([C@@H](CCCNC(=O)c2cncn2C)N2C(=O)c3cccc(N4CCN([C@H](C)c5ccccc5)CC4)c3C2=O)cc1OC
2: COc1ccc(CN2C(=O)c3cccc(N4CCN(C(C)(C)c5ccccc5)CC4)c3C2=O)cc1OC
Task: Two entries are listed, 1 and 2 . Which one carries the higher Ki? Mark your selection by writing its label.
Output: 2

A: COc1ccc([C@@H](CCNC(=O)c2csc(C)n2)N2C(=O)c3cccc(N4CCN([C@H](C)c5ccccc5)CC4)c3C2=O)cc1OC
B: CCC(c1ccccc1)N1CCN(c2cccc3c2C(=O)N(Cc2ccc(OC)c(OC)c2)C3=O)CC1 (centres unmarked)
C: COc1ccc(CN2C(=O)c3cccc(C4CCN(Cc5ccccc5)CC4)c3C2=O)cc1OC
Task: Given 3 compounds, produce a descending ranking by Ki. Provide the ranking by listing each label in its place in the requested order.
Output: B, C, A

###

# Subject Of Test: rat GPR14 (U-II receptor) (Rattus norvegicus, UniProt P49684)
# Construct: expressed in transfected cells
# Sequence (P49684 1-386): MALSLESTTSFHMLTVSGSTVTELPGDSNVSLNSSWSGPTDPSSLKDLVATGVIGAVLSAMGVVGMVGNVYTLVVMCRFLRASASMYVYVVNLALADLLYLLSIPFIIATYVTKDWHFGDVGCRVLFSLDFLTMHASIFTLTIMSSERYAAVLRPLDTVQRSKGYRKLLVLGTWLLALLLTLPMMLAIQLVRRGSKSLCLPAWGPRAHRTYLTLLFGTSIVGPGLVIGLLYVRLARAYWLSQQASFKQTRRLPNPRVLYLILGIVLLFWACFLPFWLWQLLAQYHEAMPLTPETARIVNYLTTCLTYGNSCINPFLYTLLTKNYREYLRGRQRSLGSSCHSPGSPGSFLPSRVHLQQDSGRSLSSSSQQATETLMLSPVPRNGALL
# Test Description: Rat UII Calcium Mobilization FLIPR Assay
# Type: cell-based
# Measurement Parameters: Inhibition of Acetyl-cyclic[Cys-Phe-Trp-Lys-(2-Nal)-Cys]-NH2 induced Ca2+ mobilization (FLIPR) in CHO cells transfected with rat UII receptor; read-out: IC50
Measurement Type: IC50 (nM)

Take a look at these entries with their results.
COc1ccc(CN2C(=O)c3cccc(N4CCN(CCc5ccccc5)CC4)c3C2=O)cc1OC | 1900
COc1ccc(CN2C(=O)c3cccc(N4CCN(Cc5ccccc5C)CC4)c3C2=O)cc1OC | 5000
Cc1c(CN2C(=O)c3cccc(N4CCN(Cc5ccccc5)CC4)c3C2=O)cnn1C | 24000

A: COc1ccc(CN2C(=O)c3cccc(N4CCN(Cc5cccc(F)c5)CC4)c3C2=O)cc1OC
B: C#CC(c1ccccc1)N1CCN(c2cccc3c2C(=O)N(Cc2ccc(OC)c(OC)c2)C3=O)CC1 (centres unmarked)
Task: Name the one with the greater IC50 value, either A or B as given. Refer to your chosen item by its label in the answer.
Output: B
(B: 6300 nM, A: 1100 nM)

a: Cc1nn(C)c(C)c1CN1C(=O)c2cccc(N3CCN(Cc4ccccc4)CC3)c2C1=O
b: COc1cc2c(cc1OC)C(N1C(=O)c3cccc(N4CCN(Cc5ccccc5)CC4)c3C1=O)CC2 (centres unmarked)
c: COc1ccc(CN2C(=O)c3c(C=CS(C)(=O)=O)ccc(N4CCN([C@H](C)c5ccccc5)CC4)c3C2=O)cc1OC
Task: Sort (3 compounds) by IC50: min first. Response format: the labels, sorted as the prompt asks.
Output: b, c, a
(b: 340 nM, c: 720 nM, a: 1900 nM)

###

# Subject Of Test: rat GPR14 (U-II receptor) (Rattus norvegicus)
# Construct: expressed in transfected cells
# Test Description: Rat UII Calcium Mobilization FLIPR Assay
# Assay type: cell-based
# Measurement Parameters: CHO, 5 min, 50 μM compound; agonist-induced Ca2+ mobilization (FLIPR), CHO cells with rat UII receptor; read-out: % I @ 50
Measurement Type: inhibition at 50 µM (%)

Observe how each entry below is paired with its result.
COc1ccc(CN2C(=O)c3cccc(N4CCN(Cc5ccccc5Cl)CC4)c3C2=O)cc1OC [Cpd 31] | 89
COc1ccc(N2C(=O)c3cccc(N4CC5CCC(C4)N5Cc4ccccc4)c3C2=O)cc1OC [Cpd 61] | 49
COc1ccc(C(c2ccccc2)N2C(=O)c3cccc(N4CCN([C@H](C)c5ccccc5)CC4)c3C2=O)cc1OC (stereo partly shown) [Cpd 49] | 61
CCCOc1ccc(CN2C(=O)c3cccc(N4CCN([C@H](C)c5ccccc5)CC4)c3C2=O)cc1OC [Cpd 41] | 69
COc1ccc([C@H](CC(=O)O)N2C(=O)c3cccc(N4CCN([C@H](C)c5ccccc5)CC4)c3C2=O)cc1OC [Cpd 30] | 99
COc1ccc(CN2C(=O)c3cccc(N4CCN(C(C)c5ccccc5)CC4)c3C2=O)cc1OC (stereo not shown) [Cpd 6] | 102

a: COc1ccc(CN2C(=O)c3cccc(N4CCN(Cc5ccccc5)CC4)c3C2=O)cc1OC [Cpd 5]
b: COc1ccc(CN2CCN(c3cccc4c3C(=O)N(Cc3ccc(OC)c(OC)c3)C4=O)CC2)cc1OC [Cpd 56]
Task: API: POST /compare with a and b ; response names the item with higher inhibition at 50 µM. Identify your selection by its label.
Output: a

###

# Subject Of Test: endogenous human UII receptor (Homo sapiens, UniProt Q9UKP6)
# Test Description: Human Radioligand Binding Assay ((^125I)-U-II binding to human skeletal muscle myoblasts)
pKi: −log10 of the molar value.
Measurement Type: pKi

COc1ccc(C(CCCNS(N)(=O)=O)N2C(=O)c3cccc(N4CCN([C@H](C)c5ccccc5)CC4)c3C2=O)cc1OC (stereo partly drawn) | 6.92

a: COc1ccc([C@@H](CCCNS(=O)(=O)c2cccs2)N2C(=O)c3cccc(N4CCN(C5CCCC5)CC4)c3C2=O)cc1OC
b: COc1ccc([C@@H](CCNS(=O)(=O)c2cn(C)c(C)n2)N2C(=O)c3cccc(N4CCN([C@H](C)c5ccccc5)CC4)c3C2=O)cc1OC
Task: Decide: a or b , by lowest recorded pKi. Answer by quoting the chosen item's label.
Output: a
(a: 7.07, b: 7.36)

###

# Subject Of Test: endogenous human UII receptor (Homo sapiens)
# Test Description: Human Radioligand Binding Assay ((^125I)-U-II binding to human skeletal muscle myoblasts)
Measurement Type: Ki (µM)

COc1ccc([C@@H](CCNS(=O)(=O)O)N2C(=O)c3cccc(N4CCN([C@H](C)c5ccccc5)CC4)c3C2=O)cc1OC | 0.011
COc1ccc(CN2C(=O)c3cccc(N4CCN(Cc5ccccc5O)CC4)c3C2=O)cc1OC | 3.6
COCC(=O)NCCC[C@H](c1ccc(OC)c(OC)c1)N1C(=O)c2cccc(N3CCN([C@H](C)c4ccccc4)CC3)c2C1=O | 0.026

a: COc1ccc(C(CCCNC(=O)c2cccs2)N2C(=O)c3cccc(N4CCN([C@H](C)c5ccccc5)CC4)c3C2=O)cc1OC (stereo partly shown)
b: COc1ccc(CN2C(=O)c3cccc(N4CCN(Cc5ccc(C)o5)CC4)c3C2=O)cc1OC
Task: Which entry shows the lesser value of Ki here, a or b ? Your answer should be the label of the entry you select.
Output: a
(a: 0.12 µM, b: 7.2 µM)
